target: vaccinia virus DNA synthesis (viral DNA polymerase and its associated factors) (Vaccinia virus, UniProt P06856); type: biochemical; conditions: read-out: DNA Synthesis IC50
Property name: pIC50
Remember the convention: pIC50 equals -log10 of concentration in molar.

Examples from the recorded data:
- Molecule: "Cc1ccc2nc(Cl)c3cc(C(=O)N(CCN(C)C)Cc4ccco4)sc3c2c1"
  Numeric value: 5.00
- Molecule: "CC1CCCC(C)N1CCNc1nc2ccccc2c2nc(-c3ccccc3)nn12 (stereo not drawn)"
  Numeric value: 5.14
- Molecule: "OC(CN1CCNCC1)Cn1c2ccc(Br)cc2c2cc(Br)ccc21 (stereo not drawn)"
  Numeric value: 5.20

Could you tell me which pIC50 is on file for `CCN1CCN(c2ccc(Nc3ccnc4cc5ccccc5cc34)cc2)CC1` ?
6.30

Entry `COc1ccc2nc(NC(=N)N)nc(C)c2c1` please
5.13

// query: `O=C(O)c1ccc(CS(=O)(=O)c2ccccc2)o1`
5.13
